target: DCN1 (Homo sapiens (Human), UniProt Q96GG9); assay: TR-FRET binding assay (biotin-DCN1 / Ac-UBE2M12-AlexaFluor488); conditions: mean ± SD (n); read-out: DCN1_TRFRET Mean EC50
Sequence (Q96GG9 whole entry): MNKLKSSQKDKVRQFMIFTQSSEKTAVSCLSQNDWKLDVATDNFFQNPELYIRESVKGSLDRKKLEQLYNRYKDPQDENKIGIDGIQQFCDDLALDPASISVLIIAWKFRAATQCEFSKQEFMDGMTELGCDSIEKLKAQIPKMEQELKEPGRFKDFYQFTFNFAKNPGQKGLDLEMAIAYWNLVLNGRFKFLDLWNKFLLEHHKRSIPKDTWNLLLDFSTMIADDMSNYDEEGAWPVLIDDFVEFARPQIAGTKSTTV
pEC50: −log10 of the molar value.
# if value of pEC50 reaches 6, tag TRUE; if it stays below, tag FALSE

Solved entries (count: 5):
>  <compound>
CCN1C(=O)[C@@H](NC(=O)c2cccc(C(F)(F)F)c2)[C@@H](c2ccc(F)cc2)c2c(CNCCNC(=O)OC(C)(C)C)nn(-c3ccccc3)c21 [RG-0014142]

>  <test.target>
DCN1 (Homo sapiens (Human), UniProt Q96GG9)

>  <qualitative.label>
TRUE

$$$$
>  <compound>
CCN1C(=O)[C@@H](NC(=O)c2cccc(C(F)(F)F)c2)[C@@H](c2ccc(F)cc2)c2c(CBr)nn(-c3ccccc3)c21 [RG-0014144]

>  <test.target>
DCN1 (Homo sapiens (Human), UniProt Q96GG9)

>  <qualitative.label>
TRUE

$$$$
>  <compound>
CCN1C(=O)[C@@H](NC(=O)c2cccc(I)c2)[C@@H](c2ccc(F)cc2)c2c(C)nn(-c3ccccc3)c21 [RG-0013060]

>  <test.target>
DCN1 (Homo sapiens (Human), UniProt Q96GG9)

>  <qualitative.label>
TRUE

$$$$
>  <compound>
CCN1C(=O)[C@@H](NC(=O)c2cccc(C(F)(F)F)c2)[C@@H](c2ccc(F)cc2)c2c(CNS(N)(=O)=O)nn(-c3ccccc3)c21 [RG-0014161]

>  <test.target>
DCN1 (Homo sapiens (Human), UniProt Q96GG9)

>  <qualitative.label>
TRUE

$$$$
>  <compound>
CCN1C[C@@H](NC(=O)c2cccc(C)c2)[C@@H](c2ccc(F)cc2)c2c(C)nn(-c3ccccc3)c21 [RG-0009507]

>  <test.target>
DCN1 (Homo sapiens (Human), UniProt Q96GG9)

>  <qualitative.label>
FALSE

$$$$

Now for a further compound.
Determine whether this compound has pEC50 no lower than 6: CCN1C(=O)[C@@H](NC(=O)c2ccc(C)s2)[C@@H](c2ccc(F)cc2)c2c(C)nn(-c3ccccc3)c21 [RG-0014062]
FALSE
